Data origin, for the record: the supplement of paper PMC10567573

B1: VPS39 (parent)
chain: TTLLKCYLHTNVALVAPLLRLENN

# Variants of: B1
# measurement-notes: protein stability index of a GFP-peptide fusion (GPS, HEK-293T) (PSI 1-6); higher = more stable;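 further: lentivirally expressed fusions sorted by FACS into six bins by GFP to DsRed ratio, PSI derived from sequencing read proportions per bin multiplied by bin number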
# conditions-used: c terminus: a fixed tail appended
Param threshold (3) applies to protein stability index; output Met when value >= threshold, Not met when value < threshold.

seq: TTLLKCYLHTNVALVWPLLRLENN [A16W]
label: Not met

seq: TTLLKCYLHTNVALVDPLLRLENN [A16D]
label: Met

seq: TTLLNCYLHTNVALVAPLLRLENN [K5N]
label: Not met

seq: TTLLKCYLHTNVADVAPLLRLENN [L14D]
label: Not met

seq: TTLLKCYLHTNVAYVAPLLRLENN [L14Y]
label: Met

## Task Has TTLLKCYLHTNVALVSPLLRLENN [A16S] a recorded protein stability index greater than or equal to 3?
## Result Met

## Task Has TTLLKCYLHTNVALVAPLLRLINN [E22I] a recorded protein stability index greater than or equal to 3?
## Result Not met

## Task Has TTLLFCYLHTNVALVAPLLRLENN [K5F] a recorded protein stability index greater than or equal to 3?
## Result Not met

## Task Has TTLLKCYLHTNVALVAPLLRLENQ [N24Q] a recorded protein stability index greater than or equal to 3?
## Result Met
